I'd appreciate it if you could supply %Inh values for the items below.
# Tested on: DRAK1
# Construct: gene STK17A
# measurementContext: concentration: 1 μM, replicates: in singlicate; n = 1;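 further: KINOMEscan kinase panel screen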
Response body: numeric value in %, unit text excluded.

(Q) Reported %Inh, compound "COC(=O)c1c(-c2ccccc2)c2cc(OC)ccc2c(=O)n1Cc1ccccc1" : ____
(A) 0

(Q) Cool, now COc1cc2nccc(Nc3ccc(NC(=O)c4ccc(C)cc4)c(O)c3)c2cc1OC.Cl [GW440132]
(A) 0

(Q) Query COc1ccc(Nc2nccc(NCCNC(=O)Nc3ccccc3F)n2)cc1 [GSK1379901] next
(A) 2

(Q) Same for Cc1ccc(-c2cc(-c3c[nH]nc3-c3ccccn3)ccn2)cc1 [GW684088]
(A) 12

(Q) Consider next the compound "COC(=O)c1c(-c2ccccc2)c2cc(C(=O)O)ccc2c(=O)n1Cc1ccccc1" in the same way.
(A) 0

(Q) And then Fc1cc(Cl)ccc1Nc1ccnc2cc(-c3ccc(CN4CCCCC4)o3)ccc12 [GW560116] , what is it?
(A) 33

(Q) Lookup Nc1ncnc2[nH]c(-c3ccccc3)nc12 [AH5015]
(A) 5

(Q) Same read-out for "Cc1cccc(-c2nc(-c3ccc(S(C)(=O)=O)cc3)sc2-c2ccnc(NCCc3ccccc3)c2)c1" ?
(A) 0

(Q) Now give it for COc1ccc(C2=C(Nc3cccc(C(=O)O)c3)C(=O)NC2=O)cc1 [SB-390765] too.
(A) 19

(Q) Also Cc1c(O)cccc1Nc1ccnc2ccc(C(F)(F)F)cc12.Cl [GW466413] ?
(A) 14

(Q) What about O=C(Nc1ccc2c(c1)OCO2)NC1CCN(c2ccnc(Nc3ccc(F)cc3)n2)C1 (stereo not shown) [GSK1379724] ?
(A) 0

(Q) What do we get for COc1cccc(NC(=O)NC2CCN(c3ccnc(Nc4ccc(F)cc4)n3)C2)c1 (stereo not shown) [GSK1379721] ?
(A) 0

(Q) Moving on to Cc1cc(NCC(c2ccccc2)c2ccccc2)nc(NCc2ccc(C(F)(F)F)cc2)n1 [GW497681]
(A) 0

(Q) Repeat with Nc1nc(-c2nccs2)c(-c2ccnc3ccccc23)s1 [GW693542]
(A) 9

(Q) Now consider COc1ccc(Nc2nccc(-c3cccc(NC(=O)c4cc5cc(F)ccc5[nH]4)c3)n2)cc1 [GSK1229782] .
(A) 24

(Q) And "CS(=O)(=O)c1ccc(-c2c(-c3ncn[nH]3)sc(N3CCOCC3)c2C#N)cc1" ?
(A) 8

(Q) Also Cc1cccc(-c2nc(C)cc(Nc3ccncc3)n2)n1 [GSK257997] , if possible.
(A) 12

(Q) CCCc1ccc(S(=O)(=O)NC2CCN(c3ccnc(Nc4ccc(F)cc4)n3)C2)cc1 (stereo not shown) [GSK1379715] , same question.
(A) 0

(Q) Follow-up entry: Cc1ccc(NC(=O)Nc2cc(C(C)(C)C)nn2-c2ccccc2)cc1 [GSK1014915]
(A) 0

(Q) Follow-up entry: Cc1cc(N2Cc3ccccc3C2)nc(Nc2ccc(S(=O)(=O)N3CCOCC3)cc2)n1.Cl [GSK1669917]
(A) 17

(Q) Can you check Cc1cccc(-c2nc(Nc3ccncc3)c3ccccc3n2)n1 [GW855857] next?
(A) 2

(Q) Quick one: Cl.Oc1ccc(-c2nc(-c3ccccc3)[nH]c2-c2ccncc2)cc1 [SB-428218]
(A) 0

(Q) Now consider COc1ccc(CNC(=O)NC2CCN(c3ccnc(Nc4cc(OC)c(OC)c(OC)c4)n3)C2)cc1 (stereo not shown) [GSK1379748] and answer again.
(A) 10

(Q) Same for Cc1cccc(-c2nc(Nc3ccc4[nH]ncc4c3)c3ccccc3n2)n1 [GW857175]
(A) 13

(Q) Another compound to check: "Cn1ccc2ncnc(Oc3cccc(C(=O)Nc4ccccc4)c3)c21"
(A) 0

(Q) What do you get for O=S(=O)(c1ccc(-c2ccnc3[nH]ccc23)cc1)N1CCCC1 [GSK846226] ?
(A) 73

(Q) Next compound: Cl.c1ccc(-c2n[nH]cc2-c2ccnc(-c3ccc(CN4CCOCC4)cc3)c2)nc1 [GW776245]
(A) 0

(Q) Next compound: Cc1csc(-c2nc(Nc3ccncc3)c3ccccc3n2)n1 [GW869640]
(A) 10

====

# Test system: JAK1(JH2domain-pseudokinase)
# measurementContext: concentration: 1 μM, replicates: in singlicate; n = 1
What %Inh was measured for each of the following?

(Q) Quick one: %Inh for "Cc1c(Cn2ccn3c(=O)cc(N4CCOCC4)nc23)cccc1C(F)(F)F" ?
(A) 0%

(Q) Check "Cc1cc(N2Cc3ccccc3C2)nc(Nc2ccc(S(=O)(=O)N3CCOCC3)cc2)n1.Cl" too.
(A) 0%

(Q) Queued: "Cc1cccc(-c2nc(Nc3ccc4[nH]ncc4c3)c3ccccc3n2)n1"
(A) 83%

(Q) Try the compound "Cl.c1ccc(-c2n[nH]cc2-c2ccnc(-c3ccc(CN4CCOCC4)cc3)c2)nc1"
(A) 2%

====

# Test system: GRK3
# Construct: gene ADRBK2
# measurementContext: concentration: 1 μM, replicates: in singlicate; n = 1
observationType: %Inh
Write the figure, then the unit, nothing else.

(Q) What measured %Inh goes with "O=C(O)COc1ncnc2cc(-c3ccc4[nH]ncc4c3)sc12" ?
(A) 23%

(Q) "O=C(Nc1n[nH]c2nc(-c3nccs3)c(Br)cc12)C1CCCC1" ?
(A) 66%

(Q) Same for "CCn1c(-c2ccccn2)nc2cnccc21"
(A) 78%

(Q) Moving on to the next molecule: "Cl.Oc1ccc(-c2nc(-c3ccccc3)[nH]c2-c2ccncc2)cc1"
(A) 75%

(Q) "CCn1c(-c2cccnc2O)nc2cnccc21" , same question.
(A) 21%

(Q) Field entry: "Cc1ccc(C(=O)Nc2ccc(Nc3ccnc4cc(-c5ccccn5)ccc34)cc2O)cc1.Cl"
(A) 24%

(Q) Would you kindly repeat that for COc1cc2ncn(-c3cc(OCC4CCCO4)c(C(N)=O)s3)c2cc1OC (stereo not shown) ?
(A) 16%

====

# System: BUB1
# measurementContext: concentration: 1 μM, replicates: in singlicate; n = 1
observationType: %Inh (%)
Give the quantity in %, number only.

(Q) Return reported %Inh; argument: "Fc1cc(Cl)ccc1Nc1ccnc2cc(-c3ccc(CN4CCCCC4)o3)ccc12"
(A) 26

(Q) Lookup "O=S(=O)(c1ccc(-c2ccnc3[nH]ccc23)cc1)N1CCCC1"
(A) 0

(Q) Entry "COc1ccc(C2=C(Nc3cccc(C(=O)O)c3)C(=O)NC2=O)cc1" please
(A) 0

(Q) Also check "NC(=O)c1nnc2ccccc2c1N"
(A) 12

(Q) Now try COc1cc2ncn(-c3cc(OCC4CCCO4)c(C(N)=O)s3)c2cc1OC (centres unmarked) .
(A) 32

====

# Tested on: MAP4K5
# measurementContext: concentration: 1 μM, replicates: in singlicate; n = 1
observationType: %Inh
In your response, the unit should come after the numeric value.

(Q) What measured %Inh goes with "Nc1ncnc2[nH]c(-c3ccccc3)nc12" ?
(A) 0%

(Q) Also "O=C(O)COc1ncnc2cc(-c3ccc4[nH]ncc4c3)sc12" ?
(A) 6%

(Q) Please give the result for "Cc1cccc(-c2nc(Nc3ccc4[nH]ncc4c3)c3ccccc3n2)n1" too.
(A) 0%

(Q) Same question for COc1cc2ncn(-c3cc(OCC4CCCO4)c(C(N)=O)s3)c2cc1OC (stereo not drawn) please.
(A) 4%

(Q) Now the molecule "O=S(=O)(c1ccc(-c2ccnc3[nH]ccc23)cc1)N1CCCC1"
(A) 0%

(Q) And "COC(=O)c1c(-c2ccccc2)c2cc(OC)ccc2c(=O)n1Cc1ccccc1" ?
(A) 0%

(Q) For "Cn1ccc2ncnc(Oc3ccc(Nc4nc5ccccc5[nH]4)cc3)c21" then?
(A) 0%

(Q) Record: "Cc1cc(NCC(c2ccccc2)c2ccccc2)nc(NCc2ccc(C(F)(F)F)cc2)n1"
(A) 0%

(Q) What about "O=c1cc(N2CCOCC2)nc2n(Cc3cccc(Cl)c3Cl)ccn12" ?
(A) 0%

====

# Test system: MARK4
# measurementContext: concentration: 1 μM, replicates: in singlicate; n = 1
observationType: %Inh

(Q) Quick one: %Inh of Cc1csc(-c2nc(Nc3ccncc3)c3ccccc3n2)n1 [GW869640] ?
(A) 38%

(Q) COc1cc2nccc(Nc3ccc(NC(=O)c4ccc(C)cc4)c(O)c3)c2cc1OC.Cl [GW440132] , same question.
(A) 14%

(Q) Also, "CC(C)(C)c1ccc(C(=O)Nc2cn3cc(Cl)ccc3n2)cc1" please.
(A) 0%

(Q) One more compound: Cc1cccc(-c2nc(Nc3ccncc3)c3ccccc3n2)n1 [GW855857]
(A) 25%

(Q) Ok, now Cc1cccc(-c2nc(Nc3cccc(C(N)=O)c3)c3ccccc3n2)n1 [GW876019]
(A) 0%

(Q) Same lookup for Nc1ncnc2[nH]c(-c3ccccc3)nc12 [AH5015] , please.
(A) 0%

(Q) // repeat for "COC(=O)c1c(-c2ccccc2)c2cc(C(=O)O)ccc2c(=O)n1Cc1ccccc1" and report
(A) 0%

(Q) Try this compound next: O=c1cc(N2CCOCC2)nc2n(Cc3cccc(Cl)c3Cl)ccn12 [GSK2286295]
(A) 0%

(Q) Field entry: COc1cccc(NC(=O)NC2CCN(c3ccnc(Nc4ccc(F)cc4)n3)C2)c1 (stereo not drawn) [GSK1379721]
(A) 0%

Where these numbers come from: paper PMC5540273
